Taken from PubChem BioAssay (NCI).

system: A498 renal; test: NCI-60 one-dose screen, 48 h (100 = growth as untreated, 0 = no growth, -100 = all killed); settings: 10 µM unless noted
Compounds without any hit were thinned out: in the full panel of roughly 83,000, 20% have a hit.
Field: label. Allowed values: Yes (growth < 40%) or No (growth >= 40%).

Field: example entries. Status: answers known.
Chemical string: COc1cnc2c(c1)C(=O)c1c-2n(CCCN2CCN(CCO)CC2)c(=O)c2cc([N+](=O)[O-])ccc12
Assay target: A498 renal
Class name: Yes
//
Chemical string: Cc1ccc2c(c1)c1nc3cc(C)c(C)cc3nc1n2CCN(C)C
Assay target: A498 renal
Class name: Yes
//
Chemical string: COc1cc2[nH]c(C(=O)c3cc(OC)c(OC)c(OC)c3)c(N)c2cc1C#CCO
Assay target: A498 renal
Class name: Yes

# check: growth < 40% for Cc1cc(N2CCCC2)nc(N(CCNc2ccnc3cc(Cl)ccc23)Cc2ccco2)n1
Yes

Lab note: growth threshold 40%. Does this compound come in strictly under it? CC(C)=CCC/C(C)=C/CC/C(C)=C/CC/C(C)=C/CSC[C@H](NC(=O)CCCCCN1CCN(C)CC1)C(=O)NC1CCCCC1
No

* * *

system: TK-10 renal; experiment: NCI-60 one-dose screen, 48 h; conditions: 10 µM unless noted
The panel holds about 83,000 compounds, 20% with a hit somewhere; the sample as a whole holds those more often. Active and inactive are the calls of the source. How the source made its calls: active means growth percent below 10; inactive means the rest.
Answer with one of the outcomes given here: yes (1) = active, no (0) = inactive

Molecule: COc1ccc2[nH]c(-c3ccc(Cl)cc3)cc(=O)c2c1
Class name: no (0)

Entry O=C1CN(c2ccccc2)C(=O)C1C(=O)Nc1ccc(Cl)c(Cl)c1 (stereo not given) : call = ?
no (0)

Per the records of this test, what outcome belongs to C=C1C(=O)O[C@H]2[C@H]1CC/C(Cn1cc(-c3ccc(F)cc3)nn1)=C\CC[C@@]1(C)O[C@@H]21 ?
yes (1)

Can you look up the reported call for Cc1cc(N2CCCCC2)nc(N(CCCNc2ccnc3cc(Cl)ccc23)Cc2ccco2)n1 for me?
no (0)

Recorded call for O=c1c2sc3ncc(Br)cc3c2ncn1-c1cccc(Cl)c1 ?
no (0)

* * *

system: A498 renal; assay: NCI-60 one-dose screen, 48 h (100 = growth as untreated, 0 = no growth, -100 = all killed); conditions: 10 µM unless noted
This is part of a sample that, as a whole, favours compounds with a hit. Of some 83,000 tested, about 20% had one in any assay.
Reported growth values for the following compounds.
Form entry: value (%) — number only.

Chemical string: Nc1c(C(=O)Nc2cccc(Br)c2)sc2nc3c(cc12)C(=O)CCC3
Assay target: A498 renal
Unit spec: %
growth: -3.99

# get_value(readout='growth', item= c1ccc2c(-c3nc(-c4c[nH]c5ncccc45)cs3)c[nH]c2c1 )
91.8

growth for S=c1[nH]nc2ccccn12 ?
100

Could you tell me which growth is on file for CCCCCCCN(CCCCCCC)C(=N)c1ccnc2ccccc12 ?
-17.2

* * *

test system: NCI-H23 lung; assay: NCI-60 one-dose screen, 48 h; settings: 10 µM unless noted
This is part of a sample that, as a whole, favours compounds with a hit. Of some 83,000 tested, about 20% had one in any assay. The source made the active and inactive calls. How the source made its calls: active means growth percent below 10; inactive means the rest.
Choose one outcome from this list and give only that: 1 (yes) for active, 0 (no) for inactive

Record lookup: outcome of this test for N#CC1C(=N)Cc2ccccc2-c2ccccc21 (centres undefined) ?
0 (no)

Can you look up the reported call for CC(CNc1nc(Nc2ccc(Cl)c(Cl)c2)nc(C(Cl)(Cl)Cl)n1)N(C)C (centres undefined) for me?
0 (no)

In this assay, the call recorded for COc1ccc2c(c1)c1nc3cc(C)c(C)cc3nc1n2CCN(C)C was what?
1 (yes)

I'd appreciate the recorded outcome for c1cnc2[nH]cc(-c3csc(-c4cn(CCCN5CCCCC5)c5ccccc45)n3)c2c1 from this test.
0 (no)

Recorded test outcome, item O=C1Nc2ccccc2/C1=C/c1cn(CCCn2c3ccccc3c(=O)c3ccccc32)c2ccccc12
0 (no)
